// reported IC50 for each item listed
Test system: Saccharomyces cerevisiae growth inhibition, permissive control
test-summary: yeast lifespan-shortening chemical project counter-assay, dose-response inhibition of growth under permissive conditions (AID 850);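 further: growth read as optical density after one day of incubation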
Activity calls are given as the source filed them. How the calls were made is not given here.
result-type: IC50

[
  {
    "compound": "Cc1ccc(C(=O)CSC2=NC(N)=C(C#N)C3(CCCCC3)C2C(N)=O)cc1 (configuration not stated)",
    "result": "> 100 µM (inactive)"
  },
  {
    "compound": "O=C(/C=C/N1CCOCC1)c1ccc(-c2ccccc2)cc1",
    "result": "7.19 µM"
  },
  {
    "compound": "Cc1nc(N/N=C/c2ccccn2)sc1C",
    "result": "25.8 µM"
  },
  {
    "compound": "O=C1c2ccccc2C(=O)c2c1cccc2N1CCOCC1",
    "result": "> 100 µM (inactive)"
  },
  {
    "compound": "CC1=C(C)/C(=N\\OS(=O)(=O)c2ccccc2)C=CC1=O",
    "result": "6.14 µM"
  },
  {
    "compound": "CC/C(C)=N/Nc1cccc([N+](=O)[O-])c1",
    "result": "4.11 µM"
  },
  {
    "compound": "Cc1ccc(-c2nn3c(C)nnc3s2)cc1NC(=O)c1ccc(OC(C)C)cc1",
    "result": "> 100 µM (inactive)"
  },
  {
    "compound": "COc1ccc(-c2n[nH]c(C)c2-c2ccc(Cl)cc2)c(O)c1",
    "result": "33.9 µM"
  },
  {
    "compound": "Cc1nc(Cl)c2oc3ccccc3c2n1",
    "result": "> 100 µM (inactive)"
  },
  {
    "compound": "O=c1[nH]c(Nc2ccccc2)cc2ccccc12",
    "result": "> 100 µM (inactive)"
  },
  {
    "compound": "Cc1ccc2c(c1)C(=NC1CCCCC1)c1cc3ccccc3nc1-2",
    "result": "> 100 µM (inactive)"
  },
  {
    "compound": "CC(=O)N1c2ccccc2C2(O)N=C(C)SC12 (configuration not stated)",
    "result": "> 100 µM (inactive)"
  }
]

---

// reported inhibition for each item listed
test-summary: yeast lifespan-shortening chemical project counter-assay, dose-response inhibition of growth under permissive conditions (AID 850);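 further: growth read as optical density after one day of incubation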
measurement-conditions: Saccharomyces cerevisiae growth inhibition, permissive control; measured here: maximum growth inhibition; at 6.25 µM; stronger effect = higher value

[
  {
    "compound": "Cc1ccc(-c2nc(N)sc2-c2ccccc2)cc1C",
    "inhibition [%]": 16
  },
  {
    "compound": "COc1ccccc1-n1c(=O)oc2ccc(Cl)cc2c1=O",
    "inhibition [%]": -0.76
  },
  {
    "compound": "Brc1ccccc1-c1nnc(CSc2nnc3sc4ccccc4n23)o1",
    "inhibition [%]": 13.3
  },
  {
    "compound": "COC(=O)Cn1c2ccccc2c2nc(C)sc21",
    "inhibition [%]": 28.7
  },
  {
    "compound": "Cc1ccc(Nc2cc(C)nn2-c2nc(C)cc(=O)[nH]2)cc1",
    "inhibition [%]": 96.6
  },
  {
    "compound": "CCn1c2ccccc2c2cc(Nc3cc(C)nc4ncnn34)ccc21",
    "inhibition [%]": 14.4
  },
  {
    "compound": "Cc1ccc(-c2nnc3ccc(SC(C)C(=O)O)nn23)cc1 (stereo not drawn)",
    "inhibition [%]": 10.5
  },
  {
    "compound": "Cc1ccc(C(=O)O/N=C/c2c(N3CCOCC3)n(C)c3ccccc23)cc1",
    "inhibition [%]": 18.7
  },
  {
    "compound": "C=CCn1c2ccccc2c2nnc(SCN3C(=O)c4ccccc4C3=O)nc21",
    "inhibition [%]": 12.7
  },
  {
    "compound": "O=C(COc1ccc(Cl)cc1)NC1=NN(c2ccccc2)C(=O)C1",
    "inhibition [%]": 14.6
  },
  {
    "compound": "Fc1ccc(-c2ccc(-c3nn4c(-c5ccco5)nnc4s3)o2)cc1",
    "inhibition [%]": 13.4
  },
  {
    "compound": "CCCCS(=O)(=O)/C=C\\C=C/S(=O)(=O)CCCC",
    "inhibition [%]": 21.2
  },
  {
    "compound": "O=C(O)C1C2C=CC(O2)C1C(=O)NC1CCCc2ccccc21 (stereo not drawn)",
    "inhibition [%]": 10.9
  },
  {
    "compound": "N#C/C(=C\\c1ccc([N+](=O)[O-])o1)c1nc2ccccc2[nH]1",
    "inhibition [%]": 21.4
  },
  {
    "compound": "COc1ccc(-c2nnc3sc(C(C)N4C(=O)c5ccccc5C4=O)nn23)cc1 (stereo not drawn)",
    "inhibition [%]": 14
  },
  {
    "compound": "O=c1c2ccccc2nc2c3ccccc3c3nncn3n12",
    "inhibition [%]": 5.16
  },
  {
    "compound": "Cc1cc(C(=O)N/N=C/c2cccc([N+](=O)[O-])c2O)n[nH]1",
    "inhibition [%]": 19.4
  },
  {
    "compound": "Cc1cc(C)nc(/N=c2/ssnc2Cl)c1",
    "inhibition [%]": 29.2
  },
  {
    "compound": "O=C1C2C3C=CC(CO)(O3)C2C(=O)N1c1ccccc1-c1ccccc1 (stereo not drawn)",
    "inhibition [%]": 19.9
  },
  {
    "compound": "CCOc1cccc(-c2nnc3n2N=C(c2cc(OC)ccc2OC)CS3)c1",
    "inhibition [%]": 14.8
  },
  {
    "compound": "COC(=O)c1ccc(CSc2ccc3nnc(-c4cccc(F)c4)n3n2)o1",
    "inhibition [%]": 17.7
  },
  {
    "compound": "Cn1cccc1Cc1nnc(SCC(=O)Nc2nccs2)n1CCc1ccccc1",
    "inhibition [%]": 29
  },
  {
    "compound": "Cc1oc(-c2cccs2)nc1CS(=O)CC(=O)NC1CCCCCC1 (stereo not drawn)",
    "inhibition [%]": 18.9
  }
]

---

test-summary: yeast lifespan-shortening chemical project counter-assay, dose-response inhibition of growth under permissive conditions (AID 850);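 further: growth read as optical density after one day of incubation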
measurement-conditions: Saccharomyces cerevisiae growth inhibition, permissive control; measured here: maximum growth inhibition; at 0.781 µM; stronger effect = higher value
result-type: inhibition (%)

[
  {
    "compound": "Cc1nc2cc3ccccc3cc2c(=O)[nH]1",
    "result-type": "inhibition",
    "readout-unit": "%",
    "quantitative-readout": 13.9
  },
  {
    "compound": "O/N=C/c1ccc(OCc2ccccc2)c(Br)c1",
    "result-type": "inhibition",
    "readout-unit": "%",
    "quantitative-readout": 11.2
  },
  {
    "compound": "CC(Nc1ccc(Br)cn1)c1cc(Cl)ccc1O (stereo not given)",
    "result-type": "inhibition",
    "readout-unit": "%",
    "quantitative-readout": 12.8
  },
  {
    "compound": "COc1ccc(C(=O)N/N=C/c2sc3ccccc3c2O)cc1",
    "result-type": "inhibition",
    "readout-unit": "%",
    "quantitative-readout": 17
  },
  {
    "compound": "CCCCNC(=S)NCc1ccc2c(c1)cc(C)n2C",
    "result-type": "inhibition",
    "readout-unit": "%",
    "quantitative-readout": 0.79
  },
  {
    "compound": "S=C(NCC1CCCCC1)Nc1ccc(Oc2ccccc2)cc1",
    "result-type": "inhibition",
    "readout-unit": "%",
    "quantitative-readout": 7.72
  },
  {
    "compound": "COc1cc(/C=C2\\C(=O)ON=C2c2ccccc2)cc(OC)c1OC",
    "result-type": "inhibition",
    "readout-unit": "%",
    "quantitative-readout": -2.57
  },
  {
    "compound": "Cc1cccc(OCCn2cc(/C=N/NC(=O)c3ccncc3)c3ccccc32)c1",
    "result-type": "inhibition",
    "readout-unit": "%",
    "quantitative-readout": 10
  },
  {
    "compound": "O=C(OCn1ncc(Br)c(Br)c1=O)c1ccccc1Cl",
    "result-type": "inhibition",
    "readout-unit": "%",
    "quantitative-readout": 10.5
  },
  {
    "compound": "O=C1Cc2ccccc2C(=O)N1CCc1ccccc1",
    "result-type": "inhibition",
    "readout-unit": "%",
    "quantitative-readout": 20.7
  },
  {
    "compound": "O=C(O)c1ccc2nc(-c3ccccc3)sc2c1",
    "result-type": "inhibition",
    "readout-unit": "%",
    "quantitative-readout": 28.2
  },
  {
    "compound": "CCOC(=O)c1c(N)sc(C(O)(C(F)(F)F)C(F)(F)F)c1-c1ccc(Cl)cc1",
    "result-type": "inhibition",
    "readout-unit": "%",
    "quantitative-readout": 7.92
  },
  {
    "compound": "CC12C(=O)N(c3cccc4cccnc34)C(=O)C1C1C=CC2C1 (stereo not given)",
    "result-type": "inhibition",
    "readout-unit": "%",
    "quantitative-readout": 13.8
  },
  {
    "compound": "CCCCN(CCCC)C(=S)N/N=C/c1c(C)[nH]n(-c2ccccc2)c1=O",
    "result-type": "inhibition",
    "readout-unit": "%",
    "quantitative-readout": 19.7
  },
  {
    "compound": "COc1cc(OC)c(C2CC(=O)N3CN(C)CSC3=C2C#N)cc1OC (stereo not given)",
    "result-type": "inhibition",
    "readout-unit": "%",
    "quantitative-readout": 11
  },
  {
    "compound": "CCOc1cc(C2CC(=O)N3CN(C4CCCCC4)CSC3=C2C#N)ccc1O (stereo not given)",
    "result-type": "inhibition",
    "readout-unit": "%",
    "quantitative-readout": 8.66
  },
  {
    "compound": "c1ccc(-c2csc3nnc(SCc4ccc5c(c4)OCO5)n23)cc1",
    "result-type": "inhibition",
    "readout-unit": "%",
    "quantitative-readout": 9.45
  },
  {
    "compound": "CCCCn1c(/N=C/c2c[nH]c3ccccc23)nc2ccccc21",
    "result-type": "inhibition",
    "readout-unit": "%",
    "quantitative-readout": 7.75
  },
  {
    "compound": "COc1ccc(-c2[nH]ncc2-c2ccc(Cl)cc2)c(O)c1",
    "result-type": "inhibition",
    "readout-unit": "%",
    "quantitative-readout": 14.4
  },
  {
    "compound": "CN(c1ccc(O)cc1)c1nc(-c2ccccc2)cs1",
    "result-type": "inhibition",
    "readout-unit": "%",
    "quantitative-readout": 9.5
  }
]
